tested on: P388 leukemia ip, CD2F1 mice, survival T/C; assay: NCI In Vivo Anticancer Drug Screen. Data for tumor model P388 Leukemia (intraperitoneal) in CD2F1 (CDF1) mice; conditions: endpoint: median survival time; dose: 100.0 mg/kg/injection; schedule: Q01DX005 (ip); vehicle: Klucel (hydroxypropylcellulose) (HPC); higher = longer survival
Inconclusive results and toxic doses are left out.
Quantity measured: T/C

Here's what some known entries look like.
According to the records, this molecule O=C(O)c1c2c(nc3ccccc13)-c1ccccc1C2 displays T/C of 93 % of control

According to the records, this molecule CCCN1C(C)=C(C#N)C2(C(=O)Nc3ccccc32)C(C#N)=C1C displays T/C of 102 % of control

According to the records, this molecule CCOC(=O)C(C(=O)OCC)=C(N)C(Cl)(Cl)Cl displays T/C of 111 % of control

According to the records, this molecule NC(C(=O)O)/C1=C/CCCCCC1 (stereo not given) displays T/C of 98 % of control

According to the records, this molecule OCC1OC(OC2C(CO)OC(Sc3ccccc3)C(O)C2O)C(O)C(O)C1O (stereo not given) displays T/C of 105 % of control

As a next step, examine the molecule that follows.
According to the records, this molecule CN(C)CCOC(=O)C1CC2(C1)CC(C(=O)OCCN(C)C)C2 (stereo not given) displays T/C of 97 % of control

----------
test system: P388 leukemia ip, CD2F1 mice, survival T/C; assay: NCI In Vivo Anticancer Drug Screen. Data for tumor model P388 Leukemia (intraperitoneal) in CD2F1 (CDF1) mice; conditions: endpoint: median survival time; dose: 200.0 mg/kg/injection; schedule: Q01DX001 (ip); vehicle: saline with Tween-80; higher = longer survival
Inconclusive results and toxic doses are left out.
Quantity measured: T/C

Here's what some known entries look like.
According to the records, this molecule CCOc1ccc2nc3cc(N=Nc4cc5ccccc5[nH]4)ccc3c(N)c2c1 displays T/C of 94 % of control

According to the records, this molecule OCCOc1ccc2ccccc2c1-c1c(OCCOc2ccc3ccccc3c2-c2c(OCCO)ccc3ccccc23)ccc2ccccc12 displays T/C of 88 % of control

As a next step, examine the molecule that follows.
According to the records, this molecule C/C(=N\NC(=O)c1ccccc1)c1cccc(/C(C)=N/NC(=O)c2ccccc2)n1.CC(=O)[O-].CC(=O)[O-].[Zn+2] displays T/C of 104 % of control

----------
system: P388 leukemia ip, CD2F1 mice, survival T/C; assay: NCI In Vivo Anticancer Drug Screen. Data for tumor model P388 Leukemia (intraperitoneal) in CD2F1 (CDF1) mice; conditions: endpoint: median survival time; dose: 50.0 mg/kg/injection; schedule: Q01DX009 (ip); vehicle: Klucel (hydroxypropylcellulose) (HPC); higher = longer survival
Toxic doses and inconclusive results are not listed.
Quantity measured: T/C

According to the records, this compound S=c1[nH]c2ccccc2n1CCc1ccncc1 displays T/C of 93 % of control

According to the records, this compound COc1cc2ccc(CCNCc3ccccc3)cc2cc1OC displays T/C of 95 % of control

According to the records, this compound CC1CCC2(CC1=O)C(C)CC(=O)C2C(C)C (centres undefined) displays T/C of 112 % of control

According to the records, this compound CCOc1ccccc1/C=N\NC(=O)C(=O)N/N=C\c1ccccc1OCC displays T/C of 90 % of control

According to the records, this compound CC(=O)c1ccc(Cl)c(N=Cc2cc(Cl)cc(Cl)c2O)c1 displays T/C of 91 % of control

According to the records, this compound O=C(O)CSc1nc2ccc(N3C(=O)C4C5C=CC(C5)C4C3=O)cc2s1 (centres undefined) displays T/C of 90 % of control
